These entries and their values trace back to patent US4632928A.

- tested.on: PGF2alpha receptor (Rattus norvegicus, UniProt P43118)
- Construct: in the isolated rat uterus; from tissue; host or cells: isolated rat uterus
- Sequence (P43118 whole entry): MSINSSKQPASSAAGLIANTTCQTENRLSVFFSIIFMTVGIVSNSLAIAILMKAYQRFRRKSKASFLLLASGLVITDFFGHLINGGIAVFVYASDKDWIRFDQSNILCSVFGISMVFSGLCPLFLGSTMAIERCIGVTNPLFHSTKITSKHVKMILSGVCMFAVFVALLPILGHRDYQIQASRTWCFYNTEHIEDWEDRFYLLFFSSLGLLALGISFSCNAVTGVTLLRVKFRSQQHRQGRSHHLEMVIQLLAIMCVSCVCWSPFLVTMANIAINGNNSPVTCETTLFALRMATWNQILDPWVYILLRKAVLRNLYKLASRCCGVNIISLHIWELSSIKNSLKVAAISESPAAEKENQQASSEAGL
- assay.text: PGF2alpha antagonist effect in vitro in isolated rat uterus
- measurement.context: compound 2 × 10^-6 M, PGF2alpha 1.4 × 10^-7 M, read-out: Percentual inhibition at concentrations of 2 × 10^-6 M against 1.4 × 10^-7 M PGF2alpha
- From the text: In vitro, in the isolated rat uterus (Table 1), and in vivo in rabbits under urethane anesthesis (Table 2) they antagonize the uterine contraction inducing activity of PGF2alpha. The competitive antagonist effect of the compounds is selective and protracted, while it fails to influence the uterine contraction inducing effect of other endogeneous compounds, i.e. oxytocin. […]
experimental.readout: inhibition at 2 µM (%)

# compound, tested.on, experimental.readout, measured.result
records = [
    ("C=CCc1c(C)nn(C[C@@H]2C=C3c4cccc5[nH]cc(c45)C[C@H]3N(C)C2)c1C [Example 14]", "PGF2alpha receptor (Rattus norvegicus, UniProt P43118)", "inhibition at 2 µM", 77),
    ("Cc1nn(C[C@@H]2C=C3c4cccc5[nH]cc(c45)C[C@H]3N(C)C2)c2c1C(=O)CC(C)(C)C2 [Example 10]", "PGF2alpha receptor (Rattus norvegicus, UniProt P43118)", "inhibition at 2 µM", 66),
    ("Cc1nn(C[C@@H]2C=C3c4cccc5c4c(cn5C)C[C@H]3N(C)C2)c2c1CCC2 [Example 2]", "PGF2alpha receptor (Rattus norvegicus, UniProt P43118)", "inhibition at 2 µM", 58),
    ("Cc1nn(C[C@@H]2C=C3c4cccc5[nH]cc(c45)C[C@H]3N(C)C2)c2c1CCC2 [Example 1]", "PGF2alpha receptor (Rattus norvegicus, UniProt P43118)", "inhibition at 2 µM", 70),
    ("Cc1nn(C[C@@H]2C=C3c4cccc5[nH]cc(c45)C[C@H]3N(C)C2)c2c1CCCC2 [Example 9]", "PGF2alpha receptor (Rattus norvegicus, UniProt P43118)", "inhibition at 2 µM", 40),
    ("Cc1cc(-c2ccccn2)nn1C[C@@H]1C[C@@H]2c3cccc4[nH]cc(c34)C[C@H]2N(C)C1 [Example 17]", "PGF2alpha receptor (Rattus norvegicus, UniProt P43118)", "inhibition at 2 µM", 44),
    ("Cc1nn(C[C@@H]2C=C3c4cccc5[nH]cc(c45)C[C@H]3N(C)C2)c2c1C(=NO)CC(C)(C)C2 [Example 11]", "PGF2alpha receptor (Rattus norvegicus, UniProt P43118)", "inhibition at 2 µM", 80),
    ("CCOC(=O)c1nn(C[C@@H]2C=C3c4cccc5[nH]cc(c45)C[C@H]3N(C)C2)c(O)c1C [Example 15]", "PGF2alpha receptor (Rattus norvegicus, UniProt P43118)", "inhibition at 2 µM", 40),
    ("CN1C[C@H](Cn2nc(-c3cccnc3)c3c2CCC3)C=C2c3cccc4[nH]cc(c34)C[C@H]21 [Example 5]", "PGF2alpha receptor (Rattus norvegicus, UniProt P43118)", "inhibition at 2 µM", 46),
    ("Cc1cc(-c2ccccn2)nn1C[C@@H]1C=C2c3cccc4[nH]cc(c34)C[C@H]2N(C)C1 [Example 16]", "PGF2alpha receptor (Rattus norvegicus, UniProt P43118)", "inhibition at 2 µM", 18),
]
